normalized growth for assorted compounds
- test_protocol: chemical genetic growth profiling, strain panel (AID 1159580);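 further: tested at 20 µM; growth read once vehicle control cultures reached saturation at 30 °C; 1 = growth at the plate median or of vehicle wells; lower values mean less growth of the strain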
- assay_setup: S. cerevisiae strains, growth OD, strain wild type, hits give low values
About 2,000 (36%) of roughly 5,500 compounds were called active. Another 18% or so got no clear call; they are omitted. Some of the results follow.

# compound, normalized growth
measured = [
    ("COC1=CC(=O)C=C(OC)C1=O", 1),
    ("CO[C@@H]1C[C@H](O[C@H]2CC[C@]3(C)C4CC[C@]5(C)[C@@H](C6=CC(=O)OC6)CC[C@]5(O)[C@@H]4CC[C@]3(O)C2)O[C@H](C)[C@@H]1O (stereo partly specified)", 0.899),
    ("N#CCCN1C(=O)C2(OCCO2)c2ccccc21", 1.02),
    ("NC(=O)c1cc([N+](=O)[O-])cc([N+](=O)[O-])c1", 1.01),
    ("NC(=O)c1ccc([N+](=O)[O-])cc1Cl", 0.981),
    ("COP(N)(=O)SC (stereo unspecified)", 0.996),
]
